Origin of measurements: paper PMC10146638

# target.system: knob domain of the FAdV-4 Fiber2 protein (Fowl aviadenovirus 4)
# protocol: Surface plasmon resonance assay (Biacore X100, CM5 chip)
# Format: binding, fowl adenovirus serotype 4 (FAdV-4)
pKd: −log10 of the molar value. No end group written: not given here.
This section presents substances with their documented pKd values.

{"columns": ["substance", "pKd"],
 "data": [
  ["QWKIEK [Peptide P5, QWKIEK]", 5.92],
  ["MQKHEW [Peptide P25, MQKHEW]", 5.86],
  ["QWKKHI [Peptide P1, QWKKHI]", 5.21],
  ["QWKARV [Peptide P14, QWKARV]", 4.62],
  ["QWKNCK [Peptide P10, QWKNCK]", 5.99],
  ["MQKKFI [Peptide P30, MQKKFI]", 6.04],
  ["QWKIHR [Peptide P6, QWKIHR]", 5.56],
  ["MQKHCG [Peptide P27, MQKHCG]", 6.24]
]}
